tested on: M. tuberculosis H37Rv; test: microbe, parasite or virus in culture; assay type: cell-based; settings: Mycobacterium tuberculosis, read-out: MIC H37Rv
For each entry below, report its MIC value.
Dear colleague, please return just the value in µM, with no unit written.

get_value(item= Cc1ccc2nc(C(F)(F)F)c(C(=O)NCc3cccc(Cl)c3)n2c1 , readout=MIC) returns 0.2

Kindly note the recorded MIC for Cc1ccc2nc(C)c(C(=O)NCc3ccc(C(F)(F)F)cc3)n2c1 , which is 0.03

Documented MIC of Cc1ccc2nc(C)c(C(=O)NCc3cccs3)n2c1 : 0.2

MIC for Cc1ccc2nc(C)c(C(=O)NCc3ccc(Cl)nc3)n2c1 is 5
